- Assay system: human TGR5 (Homo sapiens)
- Construct: expressed in transfected cells; host or cells: HEK293
- Sequence (Q8TDU6 1-330): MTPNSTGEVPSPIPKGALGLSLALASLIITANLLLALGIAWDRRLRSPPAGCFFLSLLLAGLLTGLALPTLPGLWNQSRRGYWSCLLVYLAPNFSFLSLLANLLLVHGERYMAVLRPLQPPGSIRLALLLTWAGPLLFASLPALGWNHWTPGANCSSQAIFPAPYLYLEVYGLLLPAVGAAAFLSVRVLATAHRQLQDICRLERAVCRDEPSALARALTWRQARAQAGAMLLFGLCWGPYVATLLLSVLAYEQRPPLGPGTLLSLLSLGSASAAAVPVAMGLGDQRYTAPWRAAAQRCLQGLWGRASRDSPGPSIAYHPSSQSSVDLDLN
- Test protocol: Cell-based TGR5 assay (cAMP generation, HTRF)
- Condition: HEK293 cells stably transfected with human TGR5; cAMP by HTRF; 30 minutes at 37° C.; read-out: pEC50 Human TGR5 (converted)
Reported EC50 values follow for various compounds

Compound	Readout value
CN(CCCCNC(=O)NC[C@H](O)[C@@H](O)[C@H](O)[C@H](O)CO)S(=O)(=O)c1cc(COC2(c3cnccc3-c3ccccc3OC3CC3)CC2)c(Cl)cc1F	< 100 nM

Input: Tell me its EC50 given `CN(CCCCNC(=O)N[C@@H](CO)[C@@H](O)[C@H](O)[C@H](O)CO)S(=O)(=O)c1cc(CNC2(c3cnccc3-c3ccccc3OC3CC3)CC2)c(Cl)cc1Cl` as the entry.
Output: 126 to 1000 nM

Input: Tell me its EC50 given `CC(C)(CCCc1cc(Cl)c(COC2(c3cnccc3-c3ccccc3OC3CC3)CC2)cc1Cl)C(=O)NC[C@H](O)[C@@H](O)[C@H](O)[C@H](O)CO` as the entry.
Output: 126 to 1000 nM

Input: Tell me its EC50 given Clc1ccc(Cl)c(COC2(c3cnccc3-c3ccccc3OC3CC3)CCOC2)c1 (centres unmarked) as the entry.
Output: < 100 nM

Input: Tell me its EC50 given `O=C(NC[C@H](O)[C@@H](O)[C@H](O)[C@H](O)CO)[C@H]1[C@@H]2CN(S(=O)(=O)c3ccc(Cl)c(COC4(c5cnccc5-c5ccccc5OC5CC5)CC4)c3)C[C@@H]21` as the entry.
Output: < 100 nM

Input: Tell me its EC50 given `CN(CCCCNC(=O)NC[C@H](O)[C@@H](O)[C@H](O)[C@H](O)CO)S(=O)(=O)c1ccc(Cl)c(COC2(c3cnccc3-c3ccccc3OC3COC3)CC2)c1` as the entry.
Output: < 100 nM

Input: Tell me its EC50 given `O=C(NCCCN1CCN(S(=O)(=O)c2ccc(Cl)c(COC3(c4cnccc4-c4ccccc4OC4CC4)CC3)c2)CC1)NC[C@H](O)[C@@H](O)[C@H](O)[C@H](O)CO` as the entry.
Output: 126 to 1000 nM

Input: Tell me its EC50 given `O=C(NCCCCCSc1ccc(Cl)c(CNC2(c3cnccc3-c3ccccc3OC3CC3)CC2)c1)NC[C@H](O)[C@@H](O)[C@H](O)[C@H](O)CO` as the entry.
Output: < 100 nM

Input: Tell me its EC50 given `O=C(NC[C@H](O)[C@@H](O)[C@H](O)[C@H](O)CO)c1ccc(CCc2ccc(Cl)c(COC3(c4cnccc4-c4ccccc4OC4CC4)CC3)c2)cn1` as the entry.
Output: < 100 nM

Input: Tell me its EC50 given CC(CCCC(=O)N(CCS(=O)(=O)N1CCOCC1)C[C@H](O)[C@@H](O)[C@H](O)[C@H](O)CO)c1ccc(Cl)c(CNC2(c3cnccc3-c3ccccc3OC3CC3)CC2)c1 (some centres unmarked) as the entry.
Output: < 100 nM

Input: Tell me its EC50 given `O=C(NCCCCc1cc(Cl)c(CNC2(c3cnccc3-c3ccccc3OC3COC3)CC2)cc1Cl)NC[C@H](O)[C@@H](O)[C@H](O)[C@H](O)CO` as the entry.
Output: 126 to 1000 nM
